# method: Primary qHTS for inhibitors of nuclear receptor binding SET domain protein 2 (NSD2) in an RCH-ACV wild type WT cells (2C) (AID 1645877); also: nearly all actives have a fitted effect of over 70% in size
# reported_conditions: RCH-ACV NSD2 WT (2C) viability, CellTiter-Glo, 72 h; series mostly up to 44.9 µM
Inconclusive results are not listed. Activity calls are given as the source filed them. Calls follow the shape of the dose curve; as a rule, active = well fitted inhibition curve with a large enough effect; inconclusive = small, poorly fitted or top-dose-only effect; inactive = no such curve, though single readings can be large or run the other way.
Outcomes you can answer with include only these: y for active, n for inactive

Check out these entries, answers already filled in.
C[C@@]1(F)[C@H](O)[C@@H](CO)O[C@H]1n1ccc(N)nc1=O	n
COCCOCCOc1ccc(C2=N[C@@](C)(C(=O)O)CS2)c(O)c1	y
CCN(CC)CCNc1ccc2ncn3c4ccc(O)cc4c(=O)c1c23	y

query: Hi, do you know how O=C1c2c(O[C@@H]3O[C@H](CO)[C@@H](O)[C@H](O)[C@H]3O)cc(O)cc2OC1(O)Cc1ccc(O)cc1 (stereo not given in full) came out in this test?
result: y

query: Hi, do you know how N#Cc1c2nc3ccccc3nc2n2ccc(NC(=O)c3cccs3)cc12 came out in this test?
result: y

----------
# method: Tertiary RLuc qRT-PCR qHTS assay for Zika virus inhibitors (AID 1347169); also: nearly all actives have a fitted effect of over 55% in size
# reported_conditions: infected Vero cells, reporter luminescence, 48-72 h; series mostly up to 1.74 µM
Records with an inconclusive call do not appear. Active and inactive are the calls of the source. The call rests on the fitted dose curve; in most records, active means well fitted inhibition curve with a large enough effect; inconclusive means small, poorly fitted or top-dose-only effect; inactive means no such curve, though single readings can be large or run the other way.
Outcomes you can answer with include only these: Yes for active, No for inactive

Check out these entries, answers already filled in.
O=c1oc2ccc3ccccc3c2cc1-c1nnc(Nc2cc(C(F)(F)F)ccc2Cl)s1	No
Cc1cccc(C(=O)Nc2ccc(C(=O)OCc3cc(=O)n4c5c(sc4n3)CCCC5)cc2)c1	No
COc1ccccc1-c1ccnc(N[C@H]2CO[C@H]3[C@@H]2OC[C@@H]3NS(=O)(=O)c2ccc3ccccc3c2)n1	Yes
CC(C)OC(=O)c1ccc(NC(=O)CSc2nc(-c3cccs3)cc(C(F)(F)F)n2)cc1	No

Attention now turns to another entry.
query: Hi, do you know how O=C(O)c1nc2cc(Cl)c(Cl)cc2[nH]c1=O came out in this test?
result: No

----------
# method: Primary qHTS for inhibitors of nuclear receptor binding SET domain protein 2 (NSD2) in an RCH-ACV wild type WT cells (2C) (AID 1645877); also: nearly all actives have a fitted effect of over 70% in size
# reported_conditions: RCH-ACV (leukaemia line) NSD2 WT (2C) viability, CellTiter-Glo, 72 h; series mostly up to 44.9 µM
Inconclusive results are not listed. Activity calls are given as the source filed them. Calls come from the whole dose curve; as a rule, active = well fitted inhibition curve with a large enough effect; inconclusive = small, poorly fitted or top-dose-only effect; inactive = no such curve, though single readings can be large or run the other way.
Outcomes you can answer with include only these: YES = active, NO = inactive

Check out these entries, answers already filled in.
C[C@]1(C(=O)Nc2ccc(F)nc2)CCCN1c1nc(Nc2cc(C3CC3)[nH]n2)c2cccn2n1	YES
Clc1ccc(-c2nc3sccn3c2/C=N/OCc2ccc(Cl)c(Cl)c2)cc1	NO
CC(C)(C)c1ccc(CNC(=S)NCc2ccc(NS(C)(=O)=O)c(F)c2)cc1	YES
CCOc1cc(CNC2CCCC2)cc(Cl)c1OCc1ccc(Cl)cc1	YES

query: Hi, do you know how CC1=CC(=O)C(C(C)C)=C/C1=N/OC(=O)c1ccccc1C came out in this test?
result: YES

----------
# Tested on: AA1029
# method: qHTS profiling for inhibitors of Plasmodium falciparum proliferation (AID 504749); also: nearly all actives have a fitted effect of over 60% in size; also: potency is read from the fitted curve at half-maximal effect
# reported_conditions: P. falciparum in erythrocytes, SYBR Green DNA, 72 h; series mostly up to 28.7 µM
Inconclusive results are not listed. The source made the active and inactive calls. Calls follow the shape of the dose curve; as a rule, active = well fitted inhibition curve with a large enough effect; inconclusive = small, poorly fitted or top-dose-only effect; inactive = flat fitted curve, though single readings scatter.
reported_endpoint: Potency

CC(=O)[C@H]1CC[C@H]2C3CC=C4C[C@@H](O)CC[C@]4(C)C3CC[C@]12C (some centres undefined)	inactive
C[C@@H](C(=O)O)c1ccc(-c2ccccc2)c(F)c1	inactive
C/C=C1\C2C=C(C)CC1(N)c1ccc(=O)[nH]c1C2 (centres undefined)	inactive
CC(C)C[C@@H](NC(=O)[C@H](Cc1ccccc1)NC(=O)c1cnccn1)B(O)O	0.0708 µM (active)
